Can you tell me CC50 for the items I'm about to list?
- System: MDA-MB-231 triple-negative breast cancer cell line
- ASSAY COMMENT: Differential Nuclear Staining
- Type: cell-based, human
- COND: Homo sapiens, MDA-MB-231, 72 h

Here are 4 compounds. What values of CC50 were reported for them?
1. Cc1ccc2c(c1)C(=Cc1cn(-c3ccccc3)nc1-c1ccccc1)C(=O)N2
2. COc1ccc(-c2nn(-c3ccccc3)cc2C=C2C(=O)Nc3ccc(C)cc32)cc1
3. O=C1Nc2ccccc2C1=Cc1cn(-c2ccccc2)nc1-c1cc2ccccc2oc1=O
4. Cc1ccc(-c2nn(-c3ccccc3)cc2C=C2C(=O)Nc3ccccc32)cc1

Found:
["> 20 µM", "> 20 µM", "> 20 µM", "> 1 µM"]

The measured values listed here are drawn from paper PMC10938640.
